# Tested on: HCT-15 colon
# Assay Info: NCI tumour cell line growth inhibition, 48 h
Outcome Measure: TGI

>>> print(df.to_string())
                                   molecule  experimental_value
0  COc1ccc(-n2nnc3c(C#N)c(C)c(-c4ccccc4)n3c2=O)cc1            > 100 µM
1               NC(=O)/C=C/c1c[nH]c2nccnc12             55.7 µM
2  CC(=O)NC(CCCCN(Cc1ccccc1)C(=O)N(C)N=O)C(=O)NCc1ccccc1 (stereo not given)            > 100 µM
3  C[C@]12O[C@@]3(C)O[C@@]3(C)[C@]3(C)O[C@]3(C)[C@@]1(C)O2            > 100 µM

Let us examine a further case.
# TGI lookup, item "Cn1c(=O)c2[nH]c(CCS)nc2n(C)c1=O"
> 100 µM
